Source of measurements: the NIST ThermoML archive (doi:10.1021/je101031j)

So I've got a bunch of molecules here, and I need their refractive index values.
assay: refractive index (Na D-line) (dimensionless); conditions: 298.15 K; 101.33 kPa; Liquid; Standard Abbe refractometry
± gives the expanded uncertainty stated by the source.

Given the molecule `CCC(C)(C)O` , what is its reported refractive index?
1.4019 ± 0.0005

Now the molecule `CCCCO`
1.3973 ± 0.0005

Now the molecule `CCCO`
1.383 ± 0.0005

Now the molecule `CO`
1.3264 ± 0.0005

Now the molecule `CCCCCO`
1.4086 ± 0.0005

Now the molecule `CCO`
1.3591 ± 0.0005

---

So I've got a bunch of compounds here, and I need their mass density values.
settings: 298.15 K; 101.33 kPa; Liquid; Vibrating tube method
Report as a plain number; the unit kg/m3 is understood.

Given the compound `CO` , what is its reported mass density?
786.42

Now the compound `CCC(C)(C)O`
804.8

Now the compound `CCCCO`
805.61

Now the compound `CCCO`
799.46

Now the compound `CCCCCO`
810.82

Now the compound `CCO`
785.22
